# measuredOn: T1, MAdCAM-IgG1 Fc fusion protein (human)
# T1 construct: Made in CHO-DHFR cells; also called MAdCAM-IgFc
# method: SPR BIAcore protocol 1: mAb captured, MAdCAM-IgG1 Fc injected
attributeMeasured: kon (M⁻¹ s⁻¹)
Field: numeric (M⁻¹ s⁻¹). Do not append units.

For anti-MAdCAM monoclonal antibody 7.26.4 (antibody, human IgG2, kappa, V domains shown, human IgG2 kappa from hybridoma 7.26.4) VH: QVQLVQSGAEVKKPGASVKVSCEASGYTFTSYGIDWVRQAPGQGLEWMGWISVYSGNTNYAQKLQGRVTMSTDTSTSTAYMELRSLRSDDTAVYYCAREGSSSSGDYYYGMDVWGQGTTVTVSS VL: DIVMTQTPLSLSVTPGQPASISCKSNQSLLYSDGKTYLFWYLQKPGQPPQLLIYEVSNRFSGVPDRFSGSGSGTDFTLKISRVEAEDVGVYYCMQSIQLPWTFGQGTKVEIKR , what is its reported kon? 960000

Further cases:
Using the record for anti-MAdCAM monoclonal antibody 9.8.2 (antibody, human IgG4, kappa, V domains shown, human IgG4 kappa from hybridoma 9.8.2) VH: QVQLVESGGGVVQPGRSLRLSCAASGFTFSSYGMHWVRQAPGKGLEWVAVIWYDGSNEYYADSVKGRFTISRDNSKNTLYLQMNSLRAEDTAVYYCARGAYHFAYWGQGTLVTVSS VL: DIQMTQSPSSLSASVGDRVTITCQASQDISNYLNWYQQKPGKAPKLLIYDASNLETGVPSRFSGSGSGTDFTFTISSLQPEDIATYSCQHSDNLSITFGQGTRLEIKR , report its kon. 2.3e+06
